- Target Or System: Beta-lactamase (Escherichia coli (strain K12)) (UniProt P00811)
- Sequence (P00811 whole entry, looked up): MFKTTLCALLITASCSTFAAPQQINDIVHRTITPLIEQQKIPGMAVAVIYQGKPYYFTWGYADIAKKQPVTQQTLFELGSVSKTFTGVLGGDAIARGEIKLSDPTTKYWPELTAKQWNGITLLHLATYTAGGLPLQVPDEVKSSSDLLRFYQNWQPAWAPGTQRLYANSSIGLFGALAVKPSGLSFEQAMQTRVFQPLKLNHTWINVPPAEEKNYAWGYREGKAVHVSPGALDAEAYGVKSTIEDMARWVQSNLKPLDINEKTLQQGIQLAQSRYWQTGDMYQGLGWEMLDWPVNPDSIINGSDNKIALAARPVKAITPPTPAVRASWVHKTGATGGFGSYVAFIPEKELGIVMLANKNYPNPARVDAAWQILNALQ
- Assay Procedure: Confirmation Cuvette-Based Assay for Inhibitors of AmpC Beta-Lactamase (assay with detergent)
- Stated Conditions: purified AmpC, nitrocefin hydrolysis absorbance, 0.01% Triton
The source made the active and inactive calls.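 Rule for the calls: active = compounds that block the bacterial enzyme AmpC beta-lactamase with detergent present and have a measured Ki; inactive = the rest.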
Quantity Kind: Ki

Molecule	Ki
O=C(O)c1ccc2c(c1)C(=O)N([C@H](Cc1cccc3ccccc13)C(=O)O)C2=O	5 µM (active)
Cn1cc(C[C@H](C(=O)O)N2C(=O)c3ccc(C(=O)O)cc3C2=O)c2ccccc21	17 µM (active)
O=C(O)c1ccc2c(c1)C(=O)N([C@H](Cc1ccc3ccccc3c1)C(=O)O)C2=O	14 µM (active)
O=C(O)c1ccc2c(c1)C(=O)N([C@H](Cc1c[nH]c3ccccc13)C(=O)O)C2=O	17 µM (active)
Cc1ccc(C[C@H](C(=O)O)N2C(=O)c3ccc(C(=O)O)cc3C2=O)c(C)c1	17 µM (active)

Task item: Give the measured Ki of `O=C(O)c1ccc2c(c1)C(=O)N([C@H](Cc1c3ccccc3cc3ccccc13)C(=O)O)C2=O` .
Reply: 12 µM (active)

Measured values drawn from PubChem BioAssay AID1003 for this set.
